FYI, the data here is from the supplement of paper PMC10567573.

B1: CAMK2A (parent)
chain: CIQQILEAVLHCHQMGVVHRDLKP

variants of: B1; assay: protein stability index of a GFP-peptide fusion (GPS, HEK-293T) (PSI 1-6); higher = more stable; conditions: c terminus: a fixed tail appended;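 also: lentivirally expressed fusions sorted by FACS into six bins by GFP to DsRed ratio, PSI derived from sequencing read proportions per bin multiplied by bin number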
assay_endpoint: protein stability index
Answers are plain numbers.

Example entries begin here.
CHQQILEAVLHCHQMGVVHRDLKP [I2H] = 1.68
CIQQILEAVLHCHQMGFVHRDLKP [V17F] = 1.59
CIQQILEAVLHCHQMDVVHRDLKP [G16D] = 2.41

For each of the variants below, state protein stability index.
1. CIQQILERVLHCHQMGVVHRDLKP [A8R]
2. CIQQILEAVLHCHQIGVVHRDLKP [M15I]
3. DIQQILEAVLHCHQMGVVHRDLKP [C1D]
4. CIQQILEAVLHCHQVGVVHRDLKP [M15V]
5. CIQQILEAVLHCHQMGVVHRILKP [D21I]
6. CIQQILEAVLHCHYMGVVHRDLKP [Q14Y]

A.
1. 1.5
2. 2.31
3. 2.12
4. 2.57
5. 3.1
6. 3.42

For each of the variants below, state protein stability index.
1. CIQQILCAVLHCHQMGVVHRDLKP [E7C]
2. CIQQILEAVLHCHQMGVVHRDFKP [L22F]
3. CIQQILEAVLVCHQMGVVHRDLKP [H11V]
4. CIQQILEAVLHCHQMGVVHRDQKP [L22Q]
5. CIQQILEAVLHCCQMGVVHRDLKP [H13C]
6. CIQQILEACLHCHQMGVVHRDLKP [V9C]

A.
[3.72, 2.66, 1.53, 1.62, 2.35, 2.82]
